Target or system: Glucose transporter (Leishmania mexicana) (UniProt O61059)
Assay overview: ST_JUDE_LEISH: Cytotoxicity at 2uM final concentration against transgenic Leishmania Mexicana promastigotes LmGT2 that are glucose transport deficient and complemented with the L. Mexicana glucose transporter 2. Activity is measured by DNA content using SYBR green in vitro
Assay type: functional
Measured endpoint: inhibition
Put down the number, then write its unit next to it.

Record excerpt, results attached:
{"columns": ["Molecule", "Measured endpoint", "Val"],
 "data": [
  ["CN(C)Cc1cccc2nc(-c3csc(Cc4cc(Cl)ccc4OCc4ccccc4)n3)[nH]c12", "inhibition", "1.88%"],
  ["CCOC(=O)c1cn(CC)c2cc(N(C)CCc3ccc(OC)c(OC)c3)c(F)cc2c1=O", "inhibition", "1.68%"],
  ["O=C(/C=C/c1ccc(Cl)c(Cl)c1)NCCCCCN1CCC(NC(=O)Nc2ccc(OC(F)F)cc2)CC1", "inhibition", "5.2%"],
  ["CN(C)c1ccc(NC2=NC(N)=NC(C)(C)N2)cc1", "inhibition", "0.7%"],
  ["Cc1cc(-c2ccc(NC(=O)N3CCc4cc(Cl)c(N5CCN(C)CC5)cc43)cc2)ccc1C#N", "inhibition", "81.7%"],
  ["Fc1cccc(C=NN=c2cc[nH]c3ccc(C(F)(F)F)cc23)c1", "inhibition", "5.06%"],
  ["CCC(C)CN1CCN(c2ccc(NC(=O)c3cccs3)cc2)C(C)C1 (centres undefined)", "inhibition", "5.37%"],
  ["O=C(NCCCCN1CCC(c2c[nH]c3ccc(-c4ccccc4)cc23)CC1)c1ccc(-c2ccccc2)cc1", "inhibition", "5.24%"],
  ["CCOC(=O)c1ccc(NC(=O)NCCCC2CCCN(CCCCCNC(=O)/C=C/c3ccc(Cl)c(Cl)c3)C2)cc1 (centres undefined)", "inhibition", "0.52%"],
  ["COc1ccccc1C1CCN(C2CCC(NC(=O)/C=C/c3cc(F)c(F)cc3F)CC2)CC1 (centres undefined)", "inhibition", "2.21%"]
]}

`Cc1nc2ccccc2c(=O)n1NCc1ccc(Cl)c(Cl)c1` on Glucose transporter (Leishmania mexicana) (UniProt O61059) gives inhibition = 0.11%

COc1cc(NC(=O)NC(CCN2CCC3(CCc4ccccc43)CC2)c2ccc(Cl)c(Cl)c2)cc(OC)c1OC (centres undefined) on Glucose transporter (Leishmania mexicana) (UniProt O61059) gives inhibition = -3.62%

`N=C(N)c1nc2ccccc2s1` on Glucose transporter (Leishmania mexicana) (UniProt O61059) gives inhibition = 2.04%

`CN(C)CCNCc1ccc(-c2ccc3c(Nc4ccc(Cl)cc4F)ccnc3c2)o1` on Glucose transporter (Leishmania mexicana) (UniProt O61059) gives inhibition = -1.76%

`Cc1cc(Nc2ccc(Oc3ccc(Cl)cc3)cc2)nc(N)n1` on Glucose transporter (Leishmania mexicana) (UniProt O61059) gives inhibition = 2.92%

`Cc1noc(-c2ccccc2)c1NC(=O)N1CCN(CCCCCCNC(=O)/C=C/c2ccc(Cl)c(Cl)c2)CC1` on Glucose transporter (Leishmania mexicana) (UniProt O61059) gives inhibition = -1.3%

Cc1c(S(=O)(=O)Nc2ccc3nccc(N4CC(C)NC(C)C4)c3c2)sc2ccc(Cl)cc12 (centres undefined) on Glucose transporter (Leishmania mexicana) (UniProt O61059) gives inhibition = 3.81%

`Cc1cc(C2CCN(CCCCNC(=O)c3ccc(NC(=O)c4ccc(Cl)cc4)cc3)CC2)c(C)cc1OCc1nccn1C` on Glucose transporter (Leishmania mexicana) (UniProt O61059) gives inhibition = 0.69%

`Nc1cccc(CNCc2cccc(-c3csc(-c4nc5ccccc5[nH]4)c3)c2)c1` on Glucose transporter (Leishmania mexicana) (UniProt O61059) gives inhibition = 1.68%

`CCOC(=O)c1ccc(OCCCCCCOc2ccc(Br)cc2)cc1` on Glucose transporter (Leishmania mexicana) (UniProt O61059) gives inhibition = -0.5%

`Cc1cccc(-c2nc(Nc3ccncc3)c3ccc([N+](=O)[O-])cc3n2)n1` on Glucose transporter (Leishmania mexicana) (UniProt O61059) gives inhibition = 3.86%

CC(C)CCN1CCC(Oc2ccc(NC(=O)c3ccc4ncccc4c3)cc2Cl)C1 (centres undefined) on Glucose transporter (Leishmania mexicana) (UniProt O61059) gives inhibition = 1.94%

`COc1cc(NC(=O)/C=C/c2ccc(-c3ccccc3)cc2)ccc1OCCN(C(C)C)C(C)C` on Glucose transporter (Leishmania mexicana) (UniProt O61059) gives inhibition = 23.4%

`c1ccc2c(c1)CN(CC1CCOCC1)CC1(CCN(Cc3c[nH]c4cnccc34)CC1)O2` on Glucose transporter (Leishmania mexicana) (UniProt O61059) gives inhibition = 0.88%

`Cc1ccc(CON2C(N)=NC(N)=NC2(C)C)c(Cl)c1.Cc1ccc(CON2C(N)=NC(N)=NC2(C)C)cc1Cl` on Glucose transporter (Leishmania mexicana) (UniProt O61059) gives inhibition = 1%

C=CCc1ccccc1OCC(O)CN(C1CCCCC1)C1CCCCC1 (centres undefined) on Glucose transporter (Leishmania mexicana) (UniProt O61059) gives inhibition = 5.77%

`N=C(N)Nc1nc(-c2ccc(NCc3ccc(CNc4cccc(-c5csc(NC(=N)N)n5)c4)cc3)cc2)cs1` on Glucose transporter (Leishmania mexicana) (UniProt O61059) gives inhibition = 1.12%

`O=C(Nc1ccc(Cn2ncc(N3CCCNCC3)c(Cl)c2=O)cc1)Nc1cccc(Oc2ccccc2)c1` on Glucose transporter (Leishmania mexicana) (UniProt O61059) gives inhibition = 1.79%

C=C(C)C1CC=C(CN2CCC(N3CCc4cc(NC(=O)c5cc(C)on5)ccc43)C2)CC1 (centres undefined) on Glucose transporter (Leishmania mexicana) (UniProt O61059) gives inhibition = 4%

C=CCNS(=O)(=O)c1ccc(NC(=O)C(C)Oc2ccc([N+](=O)[O-])cc2)cc1 (centres undefined) on Glucose transporter (Leishmania mexicana) (UniProt O61059) gives inhibition = -0.8%
